test system: Fusarium graminearum; assay: Antifungal activity against Fusarium graminearum assessed as percent inhibition at 100 ug/ml; format: functional
For each of the compounds below, state its inhibition at 100 µg/mL.
Numeric only. Scale: %

Prompt: Query the reported inhibition at 100 µg/mL for Fusarium graminearum; item: `C/C(=N\NC(=N)N)c1cn(S(=O)(=O)c2cccc([N+](=O)[O-])c2)c2cc(C)ccc12`
Completion: 20.6

Prompt: Query the reported inhibition at 100 µg/mL for Fusarium graminearum; item: `C/C(=N\NC(=N)N)c1cn(S(=O)(=O)c2ccccc2)c2cccc(C)c12`
Completion: 52.3

Prompt: Query the reported inhibition at 100 µg/mL for Fusarium graminearum; item: `CCCCC/C(=N\NC(=N)N)c1cn(S(=O)(=O)c2ccccc2)c2ccccc12`
Completion: 39.4

Prompt: Query the reported inhibition at 100 µg/mL for Fusarium graminearum; item: `CC/C(=N\NC(=N)N)c1cn(S(=O)(=O)c2ccccc2)c2ccccc12`
Completion: 50.5

Prompt: Query the reported inhibition at 100 µg/mL for Fusarium graminearum; item: `N=C(N)N/N=C/c1cn(S(=O)(=O)c2cccc([N+](=O)[O-])c2)c2ccccc12`
Completion: 31.4

Prompt: Query the reported inhibition at 100 µg/mL for Fusarium graminearum; item: `Cc1ccc(S(=O)(=O)n2cc(/C=N/NC(=N)N)c3c(C)cccc32)cc1`
Completion: 48.2

Prompt: Query the reported inhibition at 100 µg/mL for Fusarium graminearum; item: `C/C(=N\NC(=N)N)c1cn(S(=O)(=O)c2ccccc2)c2ccccc12`
Completion: 37.8

Prompt: Query the reported inhibition at 100 µg/mL for Fusarium graminearum; item: `N=C(N)N/N=C/c1cn(S(=O)(=O)c2ccccc2)c2ccccc12`
Completion: 46.3

Prompt: Query the reported inhibition at 100 µg/mL for Fusarium graminearum; item: `COc1ccc(S(=O)(=O)n2cc(/C(C)=N/NC(=N)N)c3ccc(C)cc32)cc1`
Completion: 44.8

Prompt: Query the reported inhibition at 100 µg/mL for Fusarium graminearum; item: `Cc1ccc2c(/C=N/NC(=N)N)cn(S(=O)(=O)c3ccccc3)c2c1`
Completion: 47.8
